- Protocol details: Single oral dose pharmacokinetic study of eliglustat tartrate in mild or moderate hepatic impairment and matched healthy subjects (Example 1)
- Type: in vivo, human
- Experimental context: both sexes, human, plasma, po, 100 mg, CYP2D6 EM, mild HI, N=6; single 100 mg eliglustat tartrate oral; plasma; read-out: tmax, median
Parameter measured: Tmax (h)
Number only, in h; omit the unit.

Quick one: Tmax for CCCCCCCC(=O)N[C@H](CN1CCCC1)[C@H](O)c1ccc2c(c1)OCCO2 ?
1.75

----------
- Protocol details: Phase 1 single dose pharmacokinetic study of eliglustat tartrate in severe renal impairment and matched normal renal function subjects (Example 3)
- Format: in vivo, human
- Experimental context: human, plasma, oral, 100 mg, CYP2D6 IM, severe RI, N=1, taking escitalopram and amlodipine; single oral 100 mg eliglustat tartrate; plasma; read-out: tmax
Parameter measured: Tmax (h)
Give just the number in h; leave the unit off.

Entry CCCCCCCC(=O)N[C@H](CN1CCCC1)[C@H](O)c1ccc2c(c1)OCCO2 has what Tmax?
4

----------
- Protocol details: Single oral dose pharmacokinetic study of eliglustat tartrate in mild or moderate hepatic impairment and matched healthy subjects (Example 1)
- Assay type: in vivo, human
- Experimental context: human, plasma, oral, 100 mg, CYP2D6 IM, healthy, N=1; single 100 mg eliglustat tartrate oral; plasma; read-out: tmax
Parameter measured: Tmax (h)
Note: unit h is implicit; provide only the numeric part.

Given the compound CCCCCCCC(=O)N[C@H](CN1CCCC1)[C@H](O)c1ccc2c(c1)OCCO2 [eliglustat] , what is its reported Tmax?
2.5

----------
- Protocol details: Single oral dose pharmacokinetic study of eliglustat tartrate in mild or moderate hepatic impairment and matched healthy subjects (Example 1)
- Format: in vivo, human
- Experimental context: both sexes, human, plasma, po, 100 mg, CYP2D6 EM, healthy, N=7; single 100 mg eliglustat tartrate oral; plasma; read-out: Vz/F, mean ± SD
Parameter measured: Vd/F (L)
State just the number; it will be interpreted in L.

Please give the measured Vd/F for this molecule: CCCCCCCC(=O)N[C@H](CN1CCCC1)[C@H](O)c1ccc2c(c1)OCCO2
16000

----------
- Protocol details: Phase 1 single dose pharmacokinetic study of eliglustat tartrate in severe renal impairment and matched normal renal function subjects (Example 3)
- Format: in vivo, human
- Experimental context: both sexes, human, plasma, po, 100 mg, CYP2D6 EM, severe RI, N=7; single oral 100 mg eliglustat tartrate; plasma; read-out: Vz/F, mean ± SD
Parameter measured: Vd/F (L)
Your answer should be a plain number; it is taken to be in L.

Find the recorded Vd/F belonging to CCCCCCCC(=O)N[C@H](CN1CCCC1)[C@H](O)c1ccc2c(c1)OCCO2 [eliglustat] and report it.
8480

----------
- Protocol details: Phase 1 single dose pharmacokinetic study of eliglustat tartrate in severe renal impairment and matched normal renal function subjects (Example 3)
- Format: in vivo, human
- Experimental context: human, plasma, oral, 100 mg, CYP2D6 IM, healthy, N=1; single oral 100 mg eliglustat tartrate; plasma; read-out: Vz/F
Parameter measured: Vd/F (L)
Numbers only here, please. The scale is L.

Record request: Vd/F value, item CCCCCCCC(=O)N[C@H](CN1CCCC1)[C@H](O)c1ccc2c(c1)OCCO2 [eliglustat]
2090

----------
- Protocol details: Single oral dose pharmacokinetic study of eliglustat tartrate in mild or moderate hepatic impairment and matched healthy subjects (Example 1)
- Format: in vivo, human
- Experimental context: both sexes, human, plasma, po, 100 mg, CYP2D6 EM, moderate HI, N=7; single 100 mg eliglustat tartrate oral; plasma; read-out: AUC (extrapolated to infinity), mean ± SD
Parameter measured: AUC(0-inf) (ng·h/mL)
Could you give me the number in ng·h/mL? Just the number is fine.

Entry CCCCCCCC(=O)N[C@H](CN1CCCC1)[C@H](O)c1ccc2c(c1)OCCO2 : reported AUC(0-inf) = ?
575
